TARGET_OR_TEST_SYSTEM: L-lactate dehydrogenase (Plasmodium falciparum (isolate CDC / Honduras))
ASSAY_TEXT: PfLDH activity inhibition – cell lysate, 3D7 strain, counter-screen for P. falciparum growth inhibition project (AID 2304);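 further: 0% = vehicle and 100% = reference inhibitor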
EXPERIMENTAL_CONTEXT: P. falciparum 3D7 crude extract, LDH APAD/NBT absorbance; at 2 µM; stronger effect = higher value
Active and inactive are the calls of the source. How the calls were made is not given here.
Here, each record is paired with measured inhibition data.

>  <MOLECULE>
COC(=O)c1ccc2nc(-c3cc(-c4cccc(-c5ccccc5)c4)cnc3N)[nH]c2c1

>  <TARGET_OR_TEST_SYSTEM>
L-lactate dehydrogenase (Plasmodium falciparum (isolate CDC / Honduras))

>  <inhibition>
5% (inactive)

$$$$
>  <MOLECULE>
CC12CCC(C(=O)N(CC(O)Cn3c4ccc(Cl)cc4c4cc(Cl)ccc43)C1=O)C2(C)C (centres undefined)

>  <TARGET_OR_TEST_SYSTEM>
L-lactate dehydrogenase (Plasmodium falciparum (isolate CDC / Honduras))

>  <inhibition>
-5% (inactive)

$$$$
>  <MOLECULE>
COc1ccc2nccc([C@H](O)CN3CCC(NCc4nc5c(F)cccc5[nH]4)CC3)c2c1

>  <TARGET_OR_TEST_SYSTEM>
L-lactate dehydrogenase (Plasmodium falciparum (isolate CDC / Honduras))

>  <inhibition>
-1% (inactive)

$$$$
>  <MOLECULE>
O=S(=O)(Nc1cccc(CCN2CCCCC2CCN2CCCC2)c1)c1ccc2ccccc2c1 (centres undefined)

>  <TARGET_OR_TEST_SYSTEM>
L-lactate dehydrogenase (Plasmodium falciparum (isolate CDC / Honduras))

>  <inhibition>
-2% (inactive)

$$$$
>  <MOLECULE>
O=C(Nc1ccccc1)N(Cc1cccc(-c2ccc(CNC3CCCC3)cc2)c1)C1CCN(Cc2ccccc2)CC1

>  <TARGET_OR_TEST_SYSTEM>
L-lactate dehydrogenase (Plasmodium falciparum (isolate CDC / Honduras))

>  <inhibition>
8% (inactive)

$$$$
>  <MOLECULE>
CCCNCc1ccc(-c2ccc(CN(CCOC)C(=O)c3ccco3)cc2)nc1

>  <TARGET_OR_TEST_SYSTEM>
L-lactate dehydrogenase (Plasmodium falciparum (isolate CDC / Honduras))

>  <inhibition>
-7% (inactive)

$$$$
>  <MOLECULE>
CC(=O)CC(=O)N1CCN(c2ccccc2)CC1

>  <TARGET_OR_TEST_SYSTEM>
L-lactate dehydrogenase (Plasmodium falciparum (isolate CDC / Honduras))

>  <inhibition>
-1% (inactive)

$$$$
>  <MOLECULE>
CCc1ccc(NC(=O)N(CCCN2CCN(C)CC2)Cc2csc(-c3ccc(CNCc4ccccc4)cc3)n2)cc1

>  <TARGET_OR_TEST_SYSTEM>
L-lactate dehydrogenase (Plasmodium falciparum (isolate CDC / Honduras))

>  <inhibition>
-1% (inactive)

$$$$
>  <MOLECULE>
CN(C)Cc1c(O)ccc2[nH]c(-c3cccc(F)c3)nc12

>  <TARGET_OR_TEST_SYSTEM>
L-lactate dehydrogenase (Plasmodium falciparum (isolate CDC / Honduras))

>  <inhibition>
-2% (inactive)

$$$$
>  <MOLECULE>
CCN(CC)S(=O)(=O)c1ccc(C=CC(=O)Nc2cc(Cl)ccc2N2CCOCC2)cc1

>  <TARGET_OR_TEST_SYSTEM>
L-lactate dehydrogenase (Plasmodium falciparum (isolate CDC / Honduras))

>  <inhibition>
4% (inactive)

$$$$
>  <MOLECULE>
Clc1ccc(CNCC2CCN(CC3CCCCC3)CC2)cc1Cl

>  <TARGET_OR_TEST_SYSTEM>
L-lactate dehydrogenase (Plasmodium falciparum (isolate CDC / Honduras))

>  <inhibition>
4% (inactive)

$$$$
>  <MOLECULE>
N=c1n(CCN2CCCC2)c2ccccc2n1CC(O)c1ccc(Cl)c(Cl)c1 (centres undefined)

>  <TARGET_OR_TEST_SYSTEM>
L-lactate dehydrogenase (Plasmodium falciparum (isolate CDC / Honduras))

>  <inhibition>
5% (inactive)

$$$$
>  <MOLECULE>
O=C(Cc1cnc[nH]1)Nc1ccc(-c2ccc(-c3nc4ccc(C(F)(F)F)cc4[nH]3)s2)cc1

>  <TARGET_OR_TEST_SYSTEM>
L-lactate dehydrogenase (Plasmodium falciparum (isolate CDC / Honduras))

>  <inhibition>
0% (inactive)

$$$$
>  <MOLECULE>
CCOC(=O)c1ccc2nc(-c3ccc(C(=O)NCc4ccc(C(C)(C)C)cc4)cc3)[nH]c2c1

>  <TARGET_OR_TEST_SYSTEM>
L-lactate dehydrogenase (Plasmodium falciparum (isolate CDC / Honduras))

>  <inhibition>
-3% (inactive)

$$$$
>  <MOLECULE>
Fc1ccc2[nH]c3c(NCCCN4CCOCC4)ncnc3c2c1

>  <TARGET_OR_TEST_SYSTEM>
L-lactate dehydrogenase (Plasmodium falciparum (isolate CDC / Honduras))

>  <inhibition>
-4% (inactive)

$$$$
>  <MOLECULE>
O=C(/C=C/c1ccc(Cl)c(Cl)c1)NCCCCCN1CC[C@H](NC(=O)Nc2ccc(Oc3ccccc3)cc2)C1

>  <TARGET_OR_TEST_SYSTEM>
L-lactate dehydrogenase (Plasmodium falciparum (isolate CDC / Honduras))

>  <inhibition>
-9% (inactive)

$$$$
>  <MOLECULE>
COc1ccc(CNc2ncnc3c2[nH]c2ccc(F)cc23)cc1

>  <TARGET_OR_TEST_SYSTEM>
L-lactate dehydrogenase (Plasmodium falciparum (isolate CDC / Honduras))

>  <inhibition>
-3% (inactive)

$$$$
>  <MOLECULE>
Cc1ccc(-c2noc(=O)n2CC(=O)Nc2ccccc2-c2ccccc2)cc1

>  <TARGET_OR_TEST_SYSTEM>
L-lactate dehydrogenase (Plasmodium falciparum (isolate CDC / Honduras))

>  <inhibition>
2% (inactive)

$$$$
>  <MOLECULE>
O=C(Nc1cn(-c2ccc(OCc3cccc(F)c3)c(Cl)c2)c2ncncc12)c1ccncc1

>  <TARGET_OR_TEST_SYSTEM>
L-lactate dehydrogenase (Plasmodium falciparum (isolate CDC / Honduras))

>  <inhibition>
0% (inactive)

$$$$
>  <MOLECULE>
COc1cccc2[nH]c(NCCCNCc3cc(Br)cc(Br)c3)nc12

>  <TARGET_OR_TEST_SYSTEM>
L-lactate dehydrogenase (Plasmodium falciparum (isolate CDC / Honduras))

>  <inhibition>
-8% (inactive)

$$$$
>  <MOLECULE>
Nc1ncc(-c2ccc3ncccc3c2)c(N)n1

>  <TARGET_OR_TEST_SYSTEM>
L-lactate dehydrogenase (Plasmodium falciparum (isolate CDC / Honduras))

>  <inhibition>
2% (inactive)

$$$$
>  <MOLECULE>
CCOC(=O)C1=C(C)N=c2sc(=Cc3cc(Cl)ccc3O)c(=O)n2C1c1ccc2c(c1)OCO2 (centres undefined)

>  <TARGET_OR_TEST_SYSTEM>
L-lactate dehydrogenase (Plasmodium falciparum (isolate CDC / Honduras))

>  <inhibition>
-1% (inactive)

$$$$
>  <MOLECULE>
COc1ccc(OC)c2c1C[C@@H]1NC[C@H]2c2c(OC)ccc(OC)c21

>  <TARGET_OR_TEST_SYSTEM>
L-lactate dehydrogenase (Plasmodium falciparum (isolate CDC / Honduras))

>  <inhibition>
1% (inactive)

$$$$
>  <MOLECULE>
CC(=O)Oc1c(C2C=CCCC2)c(OC(C)=O)c2ccccc2c1OC(C)=O (centres undefined)

>  <TARGET_OR_TEST_SYSTEM>
L-lactate dehydrogenase (Plasmodium falciparum (isolate CDC / Honduras))

>  <inhibition>
7% (inactive)

$$$$
>  <MOLECULE>
CN(C)CCCOc1ccc(CN2CC[C@H](NC(=O)c3ccc(Cl)c(Cl)c3)C2)cc1Cl

>  <TARGET_OR_TEST_SYSTEM>
L-lactate dehydrogenase (Plasmodium falciparum (isolate CDC / Honduras))

>  <inhibition>
1% (inactive)

$$$$
>  <MOLECULE>
c1cc(-c2ccc(CNCCc3ccncc3)cc2)cc(-c2nc3ccccc3[nH]2)c1

>  <TARGET_OR_TEST_SYSTEM>
L-lactate dehydrogenase (Plasmodium falciparum (isolate CDC / Honduras))

>  <inhibition>
-8% (inactive)

$$$$
>  <MOLECULE>
CC(C)c1sc(N2CCN(C)CC2)nc1C(=O)Nc1ccc(F)cc1C(F)(F)F

>  <TARGET_OR_TEST_SYSTEM>
L-lactate dehydrogenase (Plasmodium falciparum (isolate CDC / Honduras))

>  <inhibition>
4% (inactive)

$$$$
>  <MOLECULE>
Cc1noc(C)c1-c1ccc2c(Nc3ccccc3C(C)(C)C)c(C(=O)NCc3ccc4c(c3)OCO4)cnc2c1

>  <TARGET_OR_TEST_SYSTEM>
L-lactate dehydrogenase (Plasmodium falciparum (isolate CDC / Honduras))

>  <inhibition>
-3% (inactive)

$$$$
>  <MOLECULE>
COc1cccc(C2C(C(=O)Nc3ccccc3)=C(C)N=c3s/c(=C\c4ccc(O)cc4)c(=O)n32)c1 (centres undefined)

>  <TARGET_OR_TEST_SYSTEM>
L-lactate dehydrogenase (Plasmodium falciparum (isolate CDC / Honduras))

>  <inhibition>
6% (inactive)

$$$$
>  <MOLECULE>
Cc1ccc(-c2cnc(N)c3cc(-c4ccnc(N)n4)ccc23)cc1

>  <TARGET_OR_TEST_SYSTEM>
L-lactate dehydrogenase (Plasmodium falciparum (isolate CDC / Honduras))

>  <inhibition>
-5% (inactive)

$$$$
>  <MOLECULE>
O=C(N[C@@H](CC1CCCCC1)C(=O)NCc1cccc2ccccc12)c1ccc(O)c(-c2ccc(Cl)c(Cl)c2)c1

>  <TARGET_OR_TEST_SYSTEM>
L-lactate dehydrogenase (Plasmodium falciparum (isolate CDC / Honduras))

>  <inhibition>
2% (inactive)

$$$$
>  <MOLECULE>
Cc1cc(N[C@@H](Cc2ccccc2)C(=O)NCCc2ccccc2)nc(NCCc2cccs2)n1

>  <TARGET_OR_TEST_SYSTEM>
L-lactate dehydrogenase (Plasmodium falciparum (isolate CDC / Honduras))

>  <inhibition>
4% (inactive)

$$$$
>  <MOLECULE>
O=c1[nH]ccc2nc(N[C@@H]3CCNC3)nc(Nc3cccc(S(=O)(=O)N4CCOCC4)c3)c12

>  <TARGET_OR_TEST_SYSTEM>
L-lactate dehydrogenase (Plasmodium falciparum (isolate CDC / Honduras))

>  <inhibition>
4% (inactive)

$$$$
>  <MOLECULE>
CN(Cc1ccccc1)C1CCCN(c2cc(NC(=O)c3cccs3)ccn2)C1 (centres undefined)

>  <TARGET_OR_TEST_SYSTEM>
L-lactate dehydrogenase (Plasmodium falciparum (isolate CDC / Honduras))

>  <inhibition>
-1% (inactive)

$$$$
>  <MOLECULE>
CC(C)c1sc(N2CCCCC2)nc1C(=O)Nc1ccc(F)cc1C(F)(F)F

>  <TARGET_OR_TEST_SYSTEM>
L-lactate dehydrogenase (Plasmodium falciparum (isolate CDC / Honduras))

>  <inhibition>
0% (inactive)

$$$$
>  <MOLECULE>
COc1ccc2c(NN=CC=Cc3ccccc3)ccnc2c1

>  <TARGET_OR_TEST_SYSTEM>
L-lactate dehydrogenase (Plasmodium falciparum (isolate CDC / Honduras))

>  <inhibition>
4% (inactive)

$$$$
>  <MOLECULE>
Fc1cccc(Cl)c1-c1nc(NCCC(c2ccccc2)c2ccccc2)no1

>  <TARGET_OR_TEST_SYSTEM>
L-lactate dehydrogenase (Plasmodium falciparum (isolate CDC / Honduras))

>  <inhibition>
-3% (inactive)

$$$$
>  <MOLECULE>
COc1ccc(-c2c3c(=O)n(C)c(=O)n(C)c3c3nnc4ccccc4n23)cc1

>  <TARGET_OR_TEST_SYSTEM>
L-lactate dehydrogenase (Plasmodium falciparum (isolate CDC / Honduras))

>  <inhibition>
-2% (inactive)

$$$$
>  <MOLECULE>
CC1(C)N=C(N)N=C(N)N1OCc1cc2ccccc2cc1CON1C(N)=NC(N)=NC1(C)C

>  <TARGET_OR_TEST_SYSTEM>
L-lactate dehydrogenase (Plasmodium falciparum (isolate CDC / Honduras))

>  <inhibition>
-5% (inactive)

$$$$
